Task for the reader: assign each of the following compounds its reported log10 CC50 at 4 days.
Assay: in vitro
Settings: human
Hello, just confirming the data are log10 of CC50 at 4 days with units of µM.

Please review the following examples before continuing.
[
  {
    "compound": "O=CCCn1c(Cn2nnc3ccccc32)nc2ccccc21 [Example 30]",
    "measure_name": "log10 CC50 at 4 days",
    "readout_number": 2.03
  },
  {
    "compound": "CSCCn1c(Cn2nnc3ccccc32)nc2ccccc21 [Example 24]",
    "measure_name": "log10 CC50 at 4 days",
    "readout_number": 2.22
  },
  {
    "compound": "CC(C)=CCn1c(Cn2nnc3ccccc32)nc2ccccc21 [Example 21]",
    "measure_name": "log10 CC50 at 4 days",
    "readout_number": 1.84
  },
  {
    "compound": "CC(C)CCCn1c(Cn2nnc3ccccc32)nc2ccccc21 [Example 22]",
    "measure_name": "log10 CC50 at 4 days",
    "readout_number": 1.18
  },
  {
    "compound": "CCCCn1c(Cn2nnc3ccccc32)nc2ccccc21 [Example 19]",
    "measure_name": "log10 CC50 at 4 days",
    "readout_number": 1.08
  }
]

Please report log10 CC50 at 4 days for every entry that follows.
1. CC(N)CCn1c(Cn2nnc3ccccc32)nc2ccccc21 (stereo not shown) [Example 40]
2. [N-]=[N+]=NCCn1c(Cn2nnc3ccccc32)nc2ccccc21 [Example 33]
3. C[S+]([O-])CCn1c(Cn2nnc3ccccc32)nc2ccccc21 (stereo not shown) [Example 25]
4. N=C(N)CCn1c(Cn2nnc3ccccc32)nc2ccccc21 [Example 45, Diacetate]

1: 0.93; 2: 1.88; 3: 1.75; 4: 0.80
